Could you please report measured Binding Signal for the items listed next?
Target: T1, human TREM2 (human, UniProt Q9NZC2 19-174, limits assumed)
T1 construct: also called triggering receptor expressed on myeloid cells 2
T1 sequence: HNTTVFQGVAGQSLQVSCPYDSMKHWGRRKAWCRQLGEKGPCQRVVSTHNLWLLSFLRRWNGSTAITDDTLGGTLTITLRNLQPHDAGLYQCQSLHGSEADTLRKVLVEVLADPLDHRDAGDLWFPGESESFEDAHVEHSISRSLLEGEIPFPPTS
Assay: 2nd screen, 2 nM

# example entries with known answers
BINDER	Binding Signal
V41 (antibody, V domains shown, also called 6E7 variant V41) VH: EVQLVQSGAEVKKPGESLKISCKGSGYSFTSYWIAWVRQMPGKGLEWMGTIYPGDSDTRYSPSFQGQVTISADKSISTAYLQWSSLKASDTAMYFCARQRTFYYDSSDYFDYWGQGTLVTVSS VL: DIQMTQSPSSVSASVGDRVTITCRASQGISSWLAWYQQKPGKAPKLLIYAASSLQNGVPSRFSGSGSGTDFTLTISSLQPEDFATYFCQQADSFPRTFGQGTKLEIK	0.58 fold over 6E7 parental antibody
V17 (antibody, V domains shown, also called 6E7 variant V17) VH: EVQLVQSGAEVKKPGESLKISCKGSGYSFGSYWIAWVRQMPGKGLEWMGIIYPGDSDTRYSPSFQGQVTISADKSISTAYLQWSSLKASDTAMYFCARSRTFYYDSSDYFDYWGQGTLVTVSS VL: DIQMTQSPSSVSASVGDRVTITCRASQGISSWLAWYQQKPGKAPKLLIYAASSRQNGVPSRFSGSGSGTDFTLTISSLQPEDFATYFCQQADSSPRTFGQGTKLEIK	4.22 fold over 6E7 parental antibody

Now for the binder whose Binding Signal we want.
IN: # get_value(readout='Binding Signal', item= V15 (antibody, V domains shown, also called 6E7 variant V15) VH: EVQLVQSGAEVKKPGESLKISCKGSGYSFASYWIAWVRQMPGKGLEWMGTIYPGDSDTRYSPSFQGQVTISADKSISTAYLQWSSLKASDTAMYFCARSRTFYYDSSDYFDYWGQGTLVTVSS VL: DIQMTQSPSSVSASVGDRVTITCRASQGISSWLAWYQQKPGKAPKLLIYAASWLQNGVPSRFSGSGSGTDFTLTISSLQPEDFATYFCQQADSYPRTFGQGTKLEIK )
OUT: 4.72 fold over 6E7 parental antibody
